System: CD98
Assay: Nutrient transporter (CD98) down-regulation
Type: cell-based
Settings: 10 μM
metric: inhibition at 10 µM (%)
I only need the number, in %, no unit after it.

Study these solved cases before continuing.
CCCCCCCCc1ccc(C[C@@H]2C[C@@H](O)CN2)cc1 [Compound 16, (3R,5R)-5-(4-Octylbenzyl)pyrrolidin-3-ol] = 63
CCCCCCCCc1ccc(CC(=O)[C@H]2C[C@H](OP(=O)(O)O)CN2)cc1.Cl [Compound 32] = 5
CCCCCCCCc1ccc(C(=O)C[C@@H]2CCCN2)cc1.Cl [Compound 8, hydrochloride] = 57

As a next step, examine the compound that follows.
QUERY: Find inhibition at 10 µM (CD98) for the entry CCCCCCCCc1ccc([C@@H]2CCC3C[C@H](CO)CN32)cc1.Cl (stereo partly shown) [Compound 14, hydrochloride]
RESULT: 32

* * *

System: CD98
Assay: Nutrient transporter (CD98) down-regulation
Type: cell-based
Settings: 10 μM
metric: inhibition at 10 µM (%)
Please state the figure in %; there is no need to write the unit.

QUERY: # query: inhibition at 10 µM of entry CCCCCCCCc1ccc(C(=O)C[C@H]2C[C@H](CO)CN2)cc1.Cl (mixture of isomers) [Compound 12, hydrochloride]
RESULT: 50

QUERY: Entry under review: CCCCCCCCc1ccc(C(=O)CC[C@@H]2C[C@@H](O)CN2)cc1 [Compound 15] . Reported inhibition at 10 µM?
RESULT: 52

QUERY: Looking for the measured inhibition at 10 µM of CCCCCCCCc1ccc(C(=O)[C@H]2C[C@H](O)CN2)cc1.Cl [Compound 21] , can you help?
RESULT: 51

* * *

Each item that follows carries a reported log10 of IC50.
System: cancer cells
Assay: Cytotoxicity (IC50)
Assay type: cell-based
Structures can show the parent of a compound that is named as a salt.
Reminder: these figures are log10 of reported IC50, in µM before transformation.

Reference set, count: 7
CCCCCCCCc1ccc(C(=O)CC[C@H]2C[C@H](CO)CN2)cc1.Cl [Compound 13, hydrochloride] = 0.60
CCCCCCCCc1ccc(C(=O)[C@@H]2C[C@@H](O)CN2)cc1.Cl [Compound 20] = 1.45
CCCCCCCCc1ccc(C[C@@H]2C[C@@H](O)CN2)cc1 [Compound 16, (3R,5R)-5-(4-Octylbenzyl)pyrrolidin-3-ol] = 0.34
CCCCCCCCc1ccc(C(C[C@@H]2CCCN2)OC)cc1.Cl (single isomer, unassigned) [Compound 10, hydrochloride] = 0.48
CCCCCCCCc1ccc(CC(=O)[C@@H]2C[C@@H](OP(=O)(O)O)CN2)cc1.Cl [Compound 31] = 1.40
CCCCCCCCc1ccc(CC[C@@H]2CCCN2)cc1 [Compound 9, hydrochloride] = 0.45
CCCCCCCCc1ccc(CC(=O)[C@H]2C[C@H](OP(=O)(O)O)CN2)cc1.Cl [Compound 32] = 1.40

Kindly review the next compound as well.
QUERY: Query the reported log10 of IC50 for cancer cells; item: CCCCCCCCc1ccc([C@@H]2CCC3C[C@H](CO)CN32)cc1.Cl (some centres unmarked) [Compound 14, hydrochloride]
RESULT: 1.09

* * *

Test system: cancer cells
Test: Cytotoxicity (IC50)
Type: cell-based
Catalogue of molecules with associated pIC50
On this scale, pIC50 is minus log10 of a concentration expressed in M (mol/L).

Here's what some known entries look like.
CCCCCCCCc1ccc([C@H]2CCN[C@@H]2CO)cc1.Cl [Compound 3, reference compound] = 5.68
CCCCCCCCc1ccc(C(=O)C[C@H]2C[C@H](CO)CN2)cc1.Cl (mixture of isomers) [Compound 12, hydrochloride] = 5.70
CCCCCCCCc1ccc(C(=O)CC[C@@H]2C[C@@H](O)CN2)cc1 = 5.68

QUERY: pIC50 lookup needed for `CCCCCCCCc1ccc(CC(=O)[C@@H]2C[C@@H](O)CN2)cc1.Cl` , thanks.
RESULT: 4.73

QUERY: Requested read-out: pIC50. Entry: CCCCCCCCc1ccc(C(=O)[C@H]2C[C@H](CO)CN2)cc1.Cl [Compound 22, hydrochloride]
RESULT: 4.71

QUERY: Given the entry CCCCCCCCc1ccc(C(=O)[C@@H]2C[C@@H](OP(=O)(O)O)CN2)cc1.Cl [Compound 30] , report its measured pIC50.
RESULT: 4.89

The measured values listed here are drawn from patent US20210261583A1.
